Item-by-item account of Phage binding ELISA, Anti-CD28 Fab signal
Subject Of Test: T1, Anti-CD28 Fab (SEQ ID NOs: 696, 697)
T1 construct: Biotinylated and captured on neutravidin coated plates in the phage ELISA
Protocol Details: phage ELISA; biotinylated anti-CD28 Fab on neutravidin plate, clonal phage supernatant, anti-M13 HRP

Answered cases to consult:
YCEGHLPEYMWKCL (tested as crude clonal phage supernatant) [Phage-514]; 2.39
YCDGHLPEYMSKCM (tested as crude clonal phage supernatant) [Phage-518]; 2.38

Next, consider the following binder.
IN: Recorded Phage binding ELISA, Anti-CD28 Fab signal for YCDGHLPEYMAKCL (tested as crude clonal phage supernatant) [Phage-521] , please?
OUT: 2.37
